Tested on: 885724-159-R-J1-PDC complex spheroid viability;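 note: spheroids exposed to agents for seven days before readout; percent of vehicle control viability where 100% = DMSO wells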
Assay: Anticancer human tumor 885724-159-R-J1-PDC patient-derived pancreatic adenocarcinoma cell line growth inhibition [GQUAD]
Details: second compound 0.1 µM; first compound 0.0316 µM; stronger effect = lower value
Recorded viability, T/C by entry

MOLECULE	viability, T/C / %
CC[C@@]1(O)C(=O)OCc2c1cc1n(c2=O)Cc2cc3c(CN(C)C)c(O)ccc3nc2-1 + CN(C)c1ccc(Nc2c3ccc(NC(=O)CCN4CCCC4)cc3nc3cc(NC(=O)CCN4CCCC4)ccc23)cc1	84.2
COc1cccc2c1C(=O)c1c(O)c3c(c(O)c1C2=O)CC(O)(C(=O)CO)CC3OC1CC(N)C(O)C(C)O1 (stereo unspecified) + CN(C)c1ccc(Nc2c3ccc(NC(=O)CCN4CCCC4)cc3nc3cc(NC(=O)CCN4CCCC4)ccc23)cc1	89.4
COc1ncnc(C2CC2)c1-c1ncc2cnn(Cc3ccc(-c4nc(C(F)(F)F)cn4C(C)C)cc3)c2n1 + Cc1[nH]c2ccc(F)cc2c1-c1nc2c3cccnc3c3ncccc3c2[nH]1	101
O=C(c1cc(Cc2n[nH]c(=O)c3ccccc23)ccc1F)N1CCN(C(=O)C2CC2)CC1 + Cc1cnc(CNC(=O)c2c(=O)c3ccc(N4CCCN(C)CC4)nc3n3c2sc2ccccc23)cn1	115
Cc1[nH]c2ccccc2c1CCNCc1ccc(/C=C/C(=O)NO)cc1 + CN(C)c1ccc(Nc2c3ccc(NC(=O)CCN4CCCC4)cc3nc3cc(NC(=O)CCN4CCCC4)ccc23)cc1	125
CC(=O)O[C@H]1C(=O)[C@@]2(C)[C@H]([C@H](OC(=O)c3ccccc3)[C@]3(O)C[C@H](OC(=O)[C@H](O)[C@@H](NC(=O)c4ccccc4)c4ccccc4)C(C)=C1C3(C)C)[C@]1(OC(C)=O)CO[C@@H]1C[C@@H]2O + CN(C)c1ccc(Nc2c3ccc(NC(=O)CCN4CCCC4)cc3nc3cc(NC(=O)CCN4CCCC4)ccc23)cc1	94
C=CC(=O)N1CCN(c2nc(=O)n(-c3c(C)ccnc3C(C)C)c3nc(-c4c(O)cccc4F)c(F)cc23)C(C)C1 (stereo unspecified) + CN(C)c1ccc(Nc2c3ccc(NC(=O)CCN4CCCC4)cc3nc3cc(NC(=O)CCN4CCCC4)ccc23)cc1	101
CC1COCCN1c1cc(C2(S(C)(=N)=O)CC2)nc(-c2ccnc3[nH]ccc23)n1 (stereo unspecified) + Cc1cnc(CNC(=O)c2c(=O)c3ccc(N4CCCN(C)CC4)nc3n3c2sc2ccccc23)cn1	118
CC1COCCN1c1cc(C2(O)CC3CCC(C2)O3)c2cnn(-c3ccn[nH]3)c2n1 (stereo unspecified) + Cc1cnc(CNC(=O)c2c(=O)c3ccc(N4CCCN(C)CC4)nc3n3c2sc2ccccc23)cn1	91.1
COc1cccc2c1C(=O)c1c(O)c3c(c(O)c1C2=O)CC(O)(C(=O)CO)CC3OC1CC(N)C(O)C(C)O1 (stereo unspecified) + Cc1[nH]c2ccc(F)cc2c1-c1nc2c3cccnc3c3ncccc3c2[nH]1	119
CC(=O)O[C@H]1C(=O)[C@@]2(C)[C@H]([C@H](OC(=O)c3ccccc3)[C@]3(O)C[C@H](OC(=O)[C@H](O)[C@@H](NC(=O)c4ccccc4)c4ccccc4)C(C)=C1C3(C)C)[C@]1(OC(C)=O)CO[C@@H]1C[C@@H]2O + Cc1cnc(CNC(=O)c2c(=O)c3ccc(N4CCCN(C)CC4)nc3n3c2sc2ccccc23)cn1	111
